Ref: ChEMBL document CHEMBL2346657

- Test system: Escherichia coli
- assay_protocol: Antimicrobial activity against Escherichia coli MTCC 723 at 500 ug/ml after 24 hrs by cup plate method
- Type: functional
- assay_context: MTCC 723, 24 h, read-out: IZ
If the reported zone of inhibition at 500 µg/mL equals or exceeds 10 mm, assign YES. If not, assign NO.

Observe how each entry below is paired with its result.
N#CC1=C(N)OC(c2ccc(Cl)cc2)=CC1c1c(-c2ccccc2)[nH]c2ccc(Cl)cc12 (stereo not given) = YES
Nc1n[nH]c2c1C(c1c(-c3ccccc3)[nH]c3ccc(Cl)cc13)C=C(c1ccccc1)O2 (stereo not given) = NO

zone of inhibition at 500 µg/mL >= 10 mm for O=c1[nH]cnc2c1C(c1c(-c3ccccc3)[nH]c3ccc(Cl)cc13)C=C(c1ccc(Cl)cc1)O2 (stereo not given) ? NO

zone of inhibition at 500 µg/mL >= 10 mm for Cc1ccc2[nH]c(-c3ccccc3)c(C3C=C(c4ccccc4)Oc4[nH]c(=O)nc(N)c43)c2c1 (stereo not given) ? NO

zone of inhibition at 500 µg/mL >= 10 mm for Cc1ccc(C2=CC(c3c(-c4ccccc4)[nH]c4ccc(C)cc34)c3c(N)nc(=S)[nH]c3O2)cc1 (stereo not given) ? NO
